- System: SNB-75
- EXPERIMENT: NCI tumour cell line growth inhibition, 48 h
Activity calls are given as the source filed them. Cut-off read from the data, not from the text of the source: active = GI50 up to about 1.1 µM and inactive = higher.
Possible outcomes: active, inactive

MOLECULE	CATEGORY LABEL
C=C(C)C1CC[C@]2(C(=O)O)CCC3(C)[C@H](CCC4[C@@]5(C)CC[C@H](OC6OC(CO)C(O)C6OC6OC(C)C(O)C(O)C6O)[C@@](C)(CO)C5CC[C@]43C)C12 (some centres not stated)	inactive
Cc1ccc(-c2c(C#N)c(N)nc3c2CCS(=O)(=O)c2ccccc2-3)cc1	inactive
C[N+](C)(C)CC(=O)N/N=C\c1c(O)ccc2ccccc12	inactive
Cc1cc2c(cc1-c1cc3c(cc1C)C(C(C)C)=C(O)C(=O)/C3=C\Nc1c3ccccc3nc3ccccc13)/C(=C/Nc1c3ccccc3nc3ccccc13)C(=O)C(O)=C2C(C)C	inactive
COc1ccc(C(CC(=O)c2ccc3c(c2)OCO3)c2c(O)oc3ccccc3c2=O)cc1OC (configuration not stated)	inactive
CC(O)C1(CNc2cc(Cl)nc(N)n2)CCCC1 (configuration not stated)	inactive
COc1ccccc1NC(=S)N/N=C/c1ccccn1	inactive
CC(C)(C)OC(=O)Cc1ccc2c(ccn2Cc2ccccc2)c1	inactive
Nc1nc(Cl)c(C=O)c(NCC2(CO)CCC2)n1	inactive
C=CCN1C(=O)/C(=C/c2ccc(C)cc2)NC1=S	inactive
CCN(CC)CC1CN=C(N)O1 (configuration not stated)	inactive
Cc1[nH]nc(-c2ccon2)c1N=O	inactive
CCCC(=O)OC[n+]1ccc2c(C)c3[nH]c4ccccc4c3c(C)c2c1	inactive
COC(=O)C(C(=O)C(=O)Nc1c(Cl)cc([N+](=O)[O-])cc1Cl)c1nc2cc(C)c(C)cc2nc1O (configuration not stated)	inactive
CC1=CC(=O)/C(=C/NC(=S)NCCc2ccccc2)C(=O)O1	inactive
CC1=C(C(=O)Nc2cccc(Cl)c2)C(c2ccc([N+](=O)[O-])cc2)C(C(=O)Nc2cccc(Cl)c2)=C(C)N1	inactive
O=C1C=C(Cl)C(=O)C(c2ccc(Cl)cc2)=C1	inactive
Cc1cc(C)c2c(c1)C1=NCCN1C2(O)c1ccc(Cl)cc1 (configuration not stated)	inactive
COc1cc2c(cc1OC)[C@@H](Nc1ccc(C#N)cc1)C1COC(=O)[C@@H]1C2c1cc(OC)c(O)c(OC)c1 (some centres not stated)	active
OC1CCN2Cc3ccccc3N=C12 (configuration not stated)	inactive
CCCCCCCCCC/C=C/C=O	inactive
Oc1cnnc2nc3ccccc3n12	inactive

* * *

- System: M19-MEL
- EXPERIMENT: NCI tumour cell line growth inhibition, 48 h
Activity calls are given as the source filed them. No stated cut-off is given here; in the data, active = GI50 up to about 1.1 µM and inactive = higher.
Possible outcomes: yes for active, no for inactive

COMPOUND	CATEGORY LABEL
O=C(/C=C/c1c(O)ccc2ccccc12)c1ccccc1	no
Nc1c(/N=N/c2ccc(-c3ccc(/N=N/c4c(O)ccc5cc(S(=O)(=O)O)cc(S(=O)(=O)O)c45)cc3)cc2)c(S(=O)(=O)O)cc2cc(S(=O)(=O)O)c(/N=N/c3ccccc3)c(O)c12	no
C/C=C/C=N/N(C(=O)c1cc([N+](=O)[O-])cc([N+](=O)[O-])c1)C1=NN=C(c2ccccc2)C(c2ccccc2)N1 (stereo not drawn)	no
Cc1cc2c(C)nn(Cc3ccccc3)c2c(C(=O)O)c1C	no
CCCCC/C=C1\CCC(CN(C)C)C1=O (stereo not drawn)	no
Cn1cc(C(=O)c2ccccc2)ccc1=O	no
CCOc1ccc(/N=N/c2ccc3oc(=O)c(C(=O)Nc4ccc(OC)cc4)cc3c2)cc1	no
CC1=C2[C@@H](c3ccccc3)C3C=CC2(C=C3C(F)(F)F)N(C(=O)NC2CCCCC2)C1=O (stereo partly drawn)	no
CCC1CCc2c(OC)ccc(OCC(=O)O)c2C1=O (stereo not drawn)	no
COc1cc2oc(-c3ccc(O)cc3)cc(=O)c2c(O)c1C1OC(CO)C(O)C(O)C1O (stereo not drawn)	no
CCCC(=O)OC[n+]1ccc2c(C)c3[nH]c4ccccc4c3c(C)c2c1	no
COc1cccc(C2CC(C)=Nc3c(ccc4c3C(=O)c3ccccc3C4=O)N2)c1O (stereo not drawn)	no
CC(=O)/C=C/c1ccc(C)cc1	no
CCOC(=O)Nn1c(C)cc(C(=O)OC)c1C	no
C/C=C/C=N/N(c1nnc(-c2ccccc2)c(-c2ccccc2)n1)S(=O)(=O)c1ccc(C)cc1	no
N/C(S)=N/N=C/c1ccc(O)cn1	no
C/C=C/c1cc2c(c(=O)o1)C(=O)[C@@H](O)[C@H](C)O2	no
COc1ccc(C2=C3c4cc(OC)c(OC)cc4CCN3C(=S)SS2)cc1OC	no
COC(=O)C(C(=O)C(=O)Nc1c(Cl)cc([N+](=O)[O-])cc1Cl)c1nc2cc(C)c(C)cc2nc1O (stereo not drawn)	no
COc1cc2cc(c1Cl)N(C)C(=O)C[C@H](OC(=O)[C@H](C)N(C)C(C)=O)[C@]1(C)O[C@H]1[C@H](C)[C@@H]1C[C@@](O)(NC(=O)O1)[C@H](OC)/C=C/C=C(/C)C2	yes
NNC(=S)N/N=C(/C(=O)Nc1cc(Cl)ccc1Cl)C1C(=O)Nc2ccccc2[S+]1[O-] (stereo not drawn)	no
CC(C)c1ccc(/C=C(\NC(=O)c2ccccc2)c2nc3ccccc3[nH]2)cc1	no
COc1ccc(C2(Cl)C(Cl)(C(F)(F)F)C2(Cl)C(F)(F)F)cc1 (stereo not drawn)	no
